Origin of measurements: patent US20220177587A1

system_name: CD28 (Homo sapiens, UniProt P10747)
test_name: Flow binding to Jurkat/IL2 reporter cells (CD28)
Design: host or cells: Jurkat cells expressing an IL-2-luciferase reporter
condition_label: Table E11; Jurkats (CD28); 33.3 nM

{"molecule": "T13R/Q33R/E35D/M38I/M47L/V68M (protein, UniProt P33681 35-288, looked up, variant T13R Q33R E35D M38I M47L V68M) T-lymphocyte activation …: VIHVTKEVKEVARLSCGHNVSVEELAQTRIYWRKDKKIVLTMMSGDLNIWPEYKNRTIFDITNNLSIMILALRPSDEGTYECVVLKYEKDAFKREHLAEVTLSVKADFPTPSISDFEIPTSNIRRIICSTSGGFPEPHLSWLENGEELNAINTTVSQDPETELYAVSSKLDFNMTTNHSFMCLIKYGHLRVNQTFNWNTTKQEHFPDNLLPSWAITLISVNGIFVICCLTYCFAPRCRERRRNERLRRESVRPV", "CD28 MFI at 33.3 nM": 13.8}
{"molecule": "H18Y/E35D/M47V/V68M/L85M (protein, UniProt P33681 35-288, looked up, variant H18Y E35D M47V V68M L85M) T-lymphocyte activation …: VIHVTKEVKEVATLSCGYNVSVEELAQTRIYWQKDKKMVLTMMSGDVNIWPEYKNRTIFDITNNLSIMILALRPSDEGTYECVVMKYEKDAFKREHLAEVTLSVKADFPTPSISDFEIPTSNIRRIICSTSGGFPEPHLSWLENGEELNAINTTVSQDPETELYAVSSKLDFNMTTNHSFMCLIKYGHLRVNQTFNWNTTKQEHFPDNLLPSWAITLISVNGIFVICCLTYCFAPRCRERRRNERLRRESVRPV", "CD28 MFI at 33.3 nM": 373}
